- TARGET_UNDER_TEST: T1, human CD3 expressed on cells (human, UniProt P07766 23-207; P04234 22-171; P09693 23-182)
- T1 construct: whole, on cells; CD3 complex on Jurkat cells and on human primary T cells
- PROCEDURE_SUMMARY: flow cytometry, 25 nM
- Protocol: Purified antibodies were confirmed to bind CD3 expressed on cells using the CytoFLEX S or LX flow cytometers (Beckman Coulter). Antibodies were diluted to 25 nM in FACS buffer (PBS+2% FBS) and were incubated with CD3-expressing cells for 30 minutes at 4° C. […] The median fluorescence intensity of the binding signal for each antibody was normalized to the isotype control to obtain a fold over isotype value. An antibody with a fold over isotype (FOI) of ≥10 was considered to be positive for binding.
PARAMETER_MEASURED: Human primary T Cell Binding (FOI)
Answers are plain numbers, in FOI.

binder="mAb 162 (antibody, V domains shown) VH: EVQLVESGGGLVQPGRSLRLSCAASGFTFDNYAMHWVRQAPGKGLEWVSGISWNSGSIGYADSVKGRFTISRDNAKNSLYLELNSLRAEDTALYYCAKDSSGYGYYYNYYMDVWGKGTTVTVSS VL: EIVMTQSPATLSVSPGERATLSCRASQSVRSNLAWYQQKPGQAPRLLIYGASTRATGIPAKFSGSGSGTEFTLTISSLQSEDFAVYYCQYYYNWPHFGQGTRLEIK" parameter_measured="Human primary T Cell Binding (FOI)" quantitative_result=160

Proceed to the following item.
QUERY: If you can, please state the reported Human primary T Cell Binding (FOI) value of mAb 127 (antibody, V domains shown) VH: EVQLVESGGGLVKTGGSHRLSCVASGFSFKKAWMNWVRQAPGKGLEWVGRIKRNSDGGTTDYAAPVKGRFILSRDDSKNTLYLQMNSLKTEDTAVYYCTTLDSSSWYVGYYYMDVWGKGTTVTVSS VL: DIQMTQSPSSVSASVGDRVTITCRASQDINNWLAWYQQKPGKAPKILIYTASNLQSGVPSRFSGSGSGTDFTLTISTLQPEDFATYFCQQAHGLPITFGQGTRLEIK .
RESULT: 172

Just for reference, patent US20230295310A1 is where these values come from.
